Source listed as ChEMBL document CHEMBL1914419.

# test summary: Intrinsic clearance in human liver microsomes
# Format: ADME, Microsome
Item-by-item account of microsomal CLint
Numeric only. Scale: µL/min/mg

Please review the following examples before continuing.
[[record]]
smiles_notation = "CN(C)C(=O)Cn1ccc(C(=O)N[C@H]2C(C)(C)[C@H](Oc3ccc(C#N)c(Cl)c3)C2(C)C)n1"
measurement_kind = "microsomal CLint"
result = 15

[[record]]
smiles_notation = "Cn1cc(C(=O)N[C@H]2C(C)(C)[C@H](Oc3ccc(C#N)c(Cl)c3)C2(C)C)cn1"
measurement_kind = "microsomal CLint"
result = 9

[[record]]
smiles_notation = "Cc1nnc(C(=O)N[C@H]2C(C)(C)[C@H](Oc3ccc(C#N)c(Cl)c3)C2(C)C)o1"
measurement_kind = "microsomal CLint"
result = 29


Shift focus to the following entry.
Q. Can you look up the measured microsomal CLint of CC1(C)[C@H](NC(=O)c2cnccn2)C(C)(C)[C@H]1Oc1ccc(C#N)c(Cl)c1 for me?
A. 9.8

* * *

# test summary: Intrinsic clearance in human liver microsomes
# Type: ADME, Microsome
Reported values of microsomal CLint for individual entries
Response body: numeric value in µL/min/mg, unit text excluded.

[[record]]
smiles_notation = "Cc1nc2ncccn2c1C(=O)N[C@H]1C(C)(C)[C@H](Oc2ccc(C#N)c(Cl)c2)C1(C)C"
measurement_kind = "microsomal CLint"
unit_symbol = "µL/min/mg"
result = 19

[[record]]
smiles_notation = "CC(=O)N[C@H]1C(C)(C)[C@H](Oc2ccc(C#N)c(C(F)(F)F)c2)C1(C)C"
measurement_kind = "microsomal CLint"
unit_symbol = "µL/min/mg"
result = 11

[[record]]
smiles_notation = "CC(=O)N[C@H]1C(C)(C)[C@H](Oc2ccc(C#N)cc2Cl)C1(C)C"
measurement_kind = "microsomal CLint"
unit_symbol = "µL/min/mg"
result = 17.5


Now examine the next entry.
Q. Please report the recorded microsomal CLint for Cc1cc(C(=O)N[C@H]2C(C)(C)[C@H](Oc3ccc(C#N)c(Cl)c3)C2(C)C)nn1C .
A. 40

* * *

Listing of entries alongside the reported microsomal CLint.
# test summary: Intrinsic clearance in human liver microsomes
# Format: ADME, Microsome
// return numeric value only (unit: µL/min/mg, not printed)

Example entries begin here.
[[record]]
smiles_notation = "CC1(C)[C@H](NC(=O)c2ccn(CCC#N)n2)C(C)(C)[C@H]1Oc1ccc(C#N)c(Cl)c1"
measurement_kind = "microsomal CLint"
result = 25

[[record]]
smiles_notation = "CC1(C)[C@H](NC(=O)c2cnn(CCO)c2)C(C)(C)[C@H]1Oc1ccc(C#N)c(Cl)c1"
measurement_kind = "microsomal CLint"
result = 11


Switching to the query record.
Q. For the compound COCCn1ccc(C(=O)N[C@H]2C(C)(C)[C@H](Oc3ccc(C#N)c(Cl)c3)C2(C)C)n1 , what microsomal CLint is on record?
A. 57

* * *

Each entry below carries its reported microsomal CLint.
# test summary: Intrinsic clearance in human liver microsomes
# Type: ADME, Microsome

[[record]]
smiles_notation = "CC1(C)[C@H](NC(=O)c2ccn(CCO)n2)C(C)(C)[C@H]1Oc1ccc(C#N)c(Cl)c1"
result = "< 12 µL/min/mg"

[[record]]
smiles_notation = "CC(=O)N[C@H]1C(C)(C)[C@H](Oc2ccc(C#N)c(C)c2)C1(C)C"
result = "< 7 µL/min/mg"

[[record]]
smiles_notation = "CC1(C)[C@H](NC(=O)c2cnc3ncccn23)C(C)(C)[C@H]1Oc1ccc(C#N)c(Cl)c1"
result = "< 10 µL/min/mg"

[[record]]
smiles_notation = "Cc1nc(O[C@H]2C(C)(C)[C@H](NC(=O)c3cnc4ncccn34)C2(C)C)ccc1C#N"
result = "< 8 µL/min/mg"


Then there is this compound:
Q. Dear colleague, I am looking for the recorded microsomal CLint of the following compound: CC1(C)[C@H](NC(=O)c2cn[nH]c2)C(C)(C)[C@H]1Oc1ccc(C#N)c(Cl)c1
A. < 8 µL/min/mg
